Assay: In vivo pharmacokinetics
Set-up: species or system mouse
Details: male, ICR, mouse, plasma; IV 5 mg/kg, mice
test readout: AUC(0-inf)
Value and unit, in that order.

The recorded AUC(0-inf) for O=C(Nc1cc(C(F)(F)F)cc(C(F)(F)F)c1)c1cc2cc(F)ccc2[nH]1 [Compound A3373] is 6320 ng·h/mL

====

Assay: In vivo pharmacokinetics
Set-up: species or system mouse
Details: male, ICR, mouse, plasma; IV 5 mg/kg, mice
Experimental: Supplementary Table 4. Plasma pharmacokinetics of A3373 The pharmacokinetic parameters were estimated with non-compartmental analysis using PKSolver, based on the concentration- time profiles of A3373 in the plasma samples following single IV (5 mg/kg) and PO (10 mg/kg) dose in mice (n=3). Abbreviations: T1 /2, elimination half life; Tmax, time to peak concentration; AUC, area under the concentration–time curve; […] analyzed. […] the supernatant was analyzed by Agilent 6460 QQQ LC-MS/MS system in a negative MRM […]
test readout: AUC(0-t)
Value and unit, in that order.

The recorded AUC(0-t) for O=C(Nc1cc(C(F)(F)F)cc(C(F)(F)F)c1)c1cc2cc(F)ccc2[nH]1 [Compound A3373] is 6300 ng·h/mL

====

Experiment: In vivo pharmacokinetics
Design: species or system mouse
Details: male, ICR, mouse, plasma; PO 10 mg/kg, mice; read-out: tmax
test readout: Tmax

The recorded Tmax for O=C(Nc1cc(C(F)(F)F)cc(C(F)(F)F)c1)c1cc2cc(F)ccc2[nH]1 [Compound A3373] is 30 min

====

Assay: In vivo pharmacokinetics
Parameters: species or system mouse
Conditions: male, ICR, mouse, plasma, iv, 5 mg/kg, IV 5 mg/kg, mice; read-out: t1/2 (terminal half-life) (converted)
test readout: half-life

The recorded half-life for O=C(Nc1cc(C(F)(F)F)cc(C(F)(F)F)c1)c1cc2cc(F)ccc2[nH]1 is ~3.2 h

====

Target: hERG channel (Homo sapiens)
Sequence (Q12809 whole entry): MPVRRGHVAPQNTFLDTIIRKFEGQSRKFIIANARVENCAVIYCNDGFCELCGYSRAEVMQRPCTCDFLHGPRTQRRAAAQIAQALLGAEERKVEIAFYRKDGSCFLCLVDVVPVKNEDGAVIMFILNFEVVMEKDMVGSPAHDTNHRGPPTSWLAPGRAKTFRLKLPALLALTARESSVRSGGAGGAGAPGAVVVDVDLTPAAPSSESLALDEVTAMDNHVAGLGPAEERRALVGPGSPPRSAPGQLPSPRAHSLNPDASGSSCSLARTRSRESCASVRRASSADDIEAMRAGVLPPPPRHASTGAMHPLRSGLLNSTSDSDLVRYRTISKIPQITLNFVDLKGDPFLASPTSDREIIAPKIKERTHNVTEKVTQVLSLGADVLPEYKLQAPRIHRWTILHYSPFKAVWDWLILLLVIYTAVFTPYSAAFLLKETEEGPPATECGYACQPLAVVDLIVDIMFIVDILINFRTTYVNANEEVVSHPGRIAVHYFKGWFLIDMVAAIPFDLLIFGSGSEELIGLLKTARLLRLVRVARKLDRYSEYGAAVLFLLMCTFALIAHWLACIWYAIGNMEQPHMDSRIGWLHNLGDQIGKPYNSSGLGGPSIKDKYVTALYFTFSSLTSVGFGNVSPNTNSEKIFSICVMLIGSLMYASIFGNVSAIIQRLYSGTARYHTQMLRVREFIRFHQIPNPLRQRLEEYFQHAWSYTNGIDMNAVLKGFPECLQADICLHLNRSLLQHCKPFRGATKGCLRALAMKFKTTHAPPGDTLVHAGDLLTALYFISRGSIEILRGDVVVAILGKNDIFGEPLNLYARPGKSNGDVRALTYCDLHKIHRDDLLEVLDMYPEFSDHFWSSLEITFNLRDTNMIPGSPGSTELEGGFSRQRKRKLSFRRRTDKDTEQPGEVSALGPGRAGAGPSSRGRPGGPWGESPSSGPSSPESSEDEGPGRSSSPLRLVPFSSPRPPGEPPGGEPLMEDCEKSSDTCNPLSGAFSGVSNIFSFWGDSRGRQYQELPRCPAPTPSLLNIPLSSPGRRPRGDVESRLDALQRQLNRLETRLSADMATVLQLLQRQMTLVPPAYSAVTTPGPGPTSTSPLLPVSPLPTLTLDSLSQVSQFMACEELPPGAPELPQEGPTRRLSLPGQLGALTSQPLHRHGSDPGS
Assay: hERG ligand-binding assay
Details: HEK293 cells transfected with hERG
test readout: inhibition at 10 µM (%)
Quick reminder: number only, in %, skip the unit.

The recorded inhibition at 10 µM for O=C(Nc1cc(C(F)(F)F)cc(C(F)(F)F)c1)c1cc2cc(F)ccc2[nH]1 is 3.4

====

Assay: In vivo pharmacokinetics
Parameters: species or system mouse
Conditions: male, ICR, mouse, plasma; IV 5 mg/kg, mice
test readout: MRT (h)
Quick reminder: number only, in h, skip the unit.

The recorded MRT for O=C(Nc1cc(C(F)(F)F)cc(C(F)(F)F)c1)c1cc2cc(F)ccc2[nH]1 [Compound A3373] is 2.6

====

Experiment: In vivo pharmacokinetics
Set-up: species or system mouse
Settings: male, ICR, mouse, plasma, po, 10 mg/kg, PO 10 mg/kg, mice; read-out: t1/2 (terminal half-life) (converted)
test readout: half-life (h)
Quick reminder: number only, in h, skip the unit.

The recorded half-life for O=C(Nc1cc(C(F)(F)F)cc(C(F)(F)F)c1)c1cc2cc(F)ccc2[nH]1 is 3.8

====

Biological target: PLD2 (Mus musculus)
Construct: endogenous in cells
Sequence (P97813 whole entry): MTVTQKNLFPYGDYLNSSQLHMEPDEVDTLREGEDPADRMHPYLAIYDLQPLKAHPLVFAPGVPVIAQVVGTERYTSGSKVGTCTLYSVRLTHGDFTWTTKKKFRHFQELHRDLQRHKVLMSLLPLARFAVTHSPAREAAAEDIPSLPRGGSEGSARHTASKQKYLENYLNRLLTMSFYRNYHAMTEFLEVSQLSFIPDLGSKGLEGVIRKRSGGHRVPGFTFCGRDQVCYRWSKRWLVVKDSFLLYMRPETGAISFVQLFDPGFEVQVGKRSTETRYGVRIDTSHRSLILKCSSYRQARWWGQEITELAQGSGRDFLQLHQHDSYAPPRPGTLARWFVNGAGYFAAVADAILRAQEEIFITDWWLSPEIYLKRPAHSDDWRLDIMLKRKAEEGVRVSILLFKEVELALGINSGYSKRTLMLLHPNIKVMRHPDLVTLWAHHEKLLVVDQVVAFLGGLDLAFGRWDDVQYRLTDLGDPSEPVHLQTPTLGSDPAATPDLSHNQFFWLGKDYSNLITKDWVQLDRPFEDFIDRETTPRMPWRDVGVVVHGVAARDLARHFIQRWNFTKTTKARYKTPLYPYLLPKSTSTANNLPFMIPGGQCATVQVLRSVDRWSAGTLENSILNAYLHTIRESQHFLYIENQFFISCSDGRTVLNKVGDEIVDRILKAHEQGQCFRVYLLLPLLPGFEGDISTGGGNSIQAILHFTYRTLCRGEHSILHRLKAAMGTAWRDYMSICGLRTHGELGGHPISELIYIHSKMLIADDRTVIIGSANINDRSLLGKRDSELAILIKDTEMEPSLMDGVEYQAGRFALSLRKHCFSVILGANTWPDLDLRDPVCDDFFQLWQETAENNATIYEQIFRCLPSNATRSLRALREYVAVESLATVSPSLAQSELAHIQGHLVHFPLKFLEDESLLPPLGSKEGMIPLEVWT
Assay: PLD2 activity in Pld1−/− MEFs
Conditions: Pld1−/− MEFs
test readout: IC50
Value and unit, in that order.

The recorded IC50 for O=C(Nc1cc(C(F)(F)F)cc(C(F)(F)F)c1)c1cc2cc(F)ccc2[nH]1 [Compound A3373] is 15.1 µM

====

Experiment: In vivo pharmacokinetics
Set-up: species or system mouse
Settings: male, ICR, mouse, plasma; IV 5 mg/kg, mice; read-out: CL (clearance) (converted)
test readout: clearance (mL/min/kg)
Quick reminder: number only, in mL/min/kg, skip the unit.

The recorded clearance for O=C(Nc1cc(C(F)(F)F)cc(C(F)(F)F)c1)c1cc2cc(F)ccc2[nH]1 is 13.3

====

Test: In vivo pharmacokinetics
Design: species or system mouse
Details: male, ICR, mouse, plasma, iv, 5 mg/kg, IV 5 mg/kg, mice; read-out: Vss (steady state volume)
Procedure: Supplementary Table 4. Plasma pharmacokinetics of A3373 The pharmacokinetic parameters were estimated with non-compartmental analysis using PKSolver, based on the concentration- time profiles of A3373 in the plasma samples following single IV (5 mg/kg) and PO (10 mg/kg) dose in mice (n=3). Abbreviations: T1 /2, elimination half life; Tmax, time to peak concentration; AUC, area under the concentration–time curve; […] analyzed. […] the supernatant was analyzed by Agilent 6460 QQQ LC-MS/MS system in a negative MRM […]
test readout: Vd (L/kg)
Quick reminder: number only, in L/kg, skip the unit.

The recorded Vd for O=C(Nc1cc(C(F)(F)F)cc(C(F)(F)F)c1)c1cc2cc(F)ccc2[nH]1 is 2.1

====

Assay: In vivo pharmacokinetics
Set-up: species or system mouse
Settings: mouse, plasma; PO 10 mg/kg, male ICR mice
test readout: Cmax (ng/mL)
Quick reminder: number only, in ng/mL, skip the unit.

The recorded Cmax for O=C(Nc1cc(C(F)(F)F)cc(C(F)(F)F)c1)c1cc2cc(F)ccc2[nH]1 is 2630
